- target_of_assay: UniProt P28845
- assay_comment: biochemical
- condition_context: read-out: % inhibition of human 11-βHSD
Response key: Satisfied means inhibition at 30 µM >= 90%; Not satisfied means inhibition at 30 µM < 90%.

Consider the worked cases shown below.
| compound | class |
| --- | --- |
| CSc1nc(N2CC[C@H](CC(=O)O)C2)ccc1C(=O)NC1C2CC3CC(C2)CC1C3 (stereo partly shown) | Not satisfied |
| CCCSc1nc(Oc2cccc(C(=O)O)c2)ccc1C(=O)NC1CCCCC1 | Satisfied |
| CCS(=O)(=O)N1CCN(c2nc(N3CCC[C@@H](CC(=O)O)C3)ccc2C(=O)NC2CCCCC2)CC1 | Not satisfied |
| CCCSc1nc(Oc2cccc(CC(=O)O)c2)ccc1C(=O)NC1CCCCC1 | Not satisfied |
| O=C(O)C[C@H]1CCCN(c2ccc(C(=O)NC3CCCCC3)c(SC3CCCCC3)n2)C1 | Not satisfied |
| O=C(N[C@H]1C2CC3CC1C[C@@](O)(C3)C2)c1ccc(N2CCC[C@H]2C(=O)O)nc1SC1CCCC1 | Satisfied |

# check: inhibition at 30 µM of CCCSc1nc(Sc2ccc(CC(=O)O)cc2)ccc1C(=O)NC1CCCCC1 is greater than or equal to 90%
Not satisfied

# check: inhibition at 30 µM of CCCSc1nc(Sc2ccccc2C(=O)O)ccc1C(=O)NC1CCCCC1 is greater than or equal to 90%
Not satisfied

# check: inhibition at 30 µM of CCCSc1nc(N2CCC(C(=O)O)C2)ccc1C(=O)N[C@H]1C2CC3CC1C[C@@](O)(C3)C2 (stereo partly shown) is greater than or equal to 90%
Not satisfied

# check: inhibition at 30 µM of CCCSc1nc(N2CC[C@@H](CC(=O)O)C2)ccc1C(=O)N[C@H]1C2CC3CC1C[C@](OC(F)F)(C3)C2 is greater than or equal to 90%
Satisfied

---

- target_of_assay: human 11βHSD1 enzyme (Homo sapiens (Human))
- Sequence (P28845 whole entry): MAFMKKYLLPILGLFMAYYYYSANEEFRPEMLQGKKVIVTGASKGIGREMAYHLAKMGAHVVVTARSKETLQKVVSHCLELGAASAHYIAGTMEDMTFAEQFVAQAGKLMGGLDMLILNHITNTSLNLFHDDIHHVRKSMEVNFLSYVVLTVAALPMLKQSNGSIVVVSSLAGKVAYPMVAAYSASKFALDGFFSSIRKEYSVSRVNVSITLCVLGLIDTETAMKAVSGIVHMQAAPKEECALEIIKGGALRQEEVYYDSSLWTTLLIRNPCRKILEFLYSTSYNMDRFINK
- assay_comment: biochemical
- condition_context: read-out: % inhibition of human 11-βHSD
Measured inhibition at 30 µM values are reported for all entries that follow.
Response body: numeric value in %, unit text excluded.

# annotated cases, reported inhibition at 30 µM shown
| compound | units_symbol | test_result |
| --- | --- | --- |
| CCCSc1nc(N2CC[C@H](CC(=O)O)C2)ccc1C(=O)NC1C2CC3CC(C2)CC1C3 (stereo partly shown) | % | 89 |
| O=C(O)C[C@@H]1CCCN(c2ccc(C(=O)NC3CCCCC3)c(N3CCN(c4ccccc4)CC3)n2)C1 | % | 84 |
| O=C(O)C[C@@H]1CCCN(c2ccc(C(=O)NC3CCCCC3)c(SCCc3cnccn3)n2)C1 | % | 98 |

Lab note: next compound to report on.
Report measured inhibition at 30 µM on human 11βHSD1 enzyme (Homo sapiens (Human)); entry: CCCSc1nc(N2CCC[C@@H](CC(=O)O)C2)ccc1C(=O)N(C)[C@H]1C2CC3CC1C[C@](O)(C3)C2
97

---

Measured inhibition at 30 µM values are reported for all entries that follow.
- target_of_assay: UniProt:P28845
- assay_comment: biochemical
- condition_context: read-out: % inhibition of human 11-βHSD
Response body: numeric value in %, unit text excluded.

| compound | target_of_assay | test_result |
| --- | --- | --- |
| CCCSc1nc(Sc2ccc(C(=O)O)cc2)ccc1C(=O)NC1CCCCC1 | UniProt:P28845 | 73 |
| O=C(O)C[C@@H]1CCCN(c2ccc(C(=O)NC3CCCCC3)c(N3CCN(S(=O)(=O)c4ccccc4)CC3)n2)C1 | UniProt:P28845 | 83 |
| CCCSc1nc(N2CCC(C)(C(=O)O)CC2)ccc1C(=O)NC1CCCCC1 | UniProt:P28845 | 89 |

Let me know recorded inhibition at 30 µM for O=C(O)CO[C@H]1CCN(c2ccc(C(=O)NC3C4CC5CC(C4)CC3C5)c(SC3CCCCC3)n2)C1 (stereo partly shown) , thanks.
92

Let me know recorded inhibition at 30 µM for CCCSc1nc(N2CCC(C(=O)O)C2)ccc1C(=O)N[C@H]1C2CC3CC1C[C@](OC(F)F)(C3)C2 (stereo partly shown) , thanks.
97

Let me know recorded inhibition at 30 µM for CCCSc1nc(N2CCC(C(=O)O)CC2)ccc1C(=O)N[C@H]1C2CC3CC1C[C@@](O)(C3)C2 , thanks.
101

Let me know recorded inhibition at 30 µM for CCCSc1nc(N2CCOC(C(=O)O)C2)ccc1C(=O)NC1CCCCC1 (stereo not shown) , thanks.
90
